- System: Mycobacterium tuberculosis
- Assay notes: Cornell - Phenotypic assay to identify agents that inhibit growth of Mycobacterium tuberculosis
- Format: functional
- Design: scale not given: direction of the effect not stated beside the values
- Recorded conditions: 10 mM as filed; unlikely as a test dose
Hit rate of the full screen: of about 53,000 compounds, about 900 (1.7%) showed an effect of 50% or more. The full list was thinned out, with strong results kept by preference.
Would you kindly list Percent Effect for each of these compounds?
Field: numeric (%). Do not append units.

Which Percent Effect is reported for this compound? COC(=O)N1CCC(CNC(=O)C2CCN(S(C)(=O)=O)CC2)CC1
-2.459

Which Percent Effect is reported for this compound? COc1ccccc1C1(NCc2c(C)nc3c(C)cccn23)CCCC1.Cl
-17.64

Which Percent Effect is reported for this compound? CCc1ccccc1-n1nnc(C(=O)O)c1-c1ccccn1
8.629

Which Percent Effect is reported for this compound? CCn1nnc(NCc2cc(Br)cc(Br)c2OC)n1
31.18

Which Percent Effect is reported for this compound? CC(C)(C)c1noc(CN2CCCc3cc(OC(F)(F)F)ccc32)n1
12.22

Which Percent Effect is reported for this compound? CN(C)[C@@H]1CN(Cc2ccccc2O)C[C@H]1c1cn(C)c2ccccc12.Cl
107.3

Which Percent Effect is reported for this compound? CN(C)[C@@H]1CN(Cc2ccccn2)C[C@H]1c1cn(C)c2ccccc12.Cl
54.37

Which Percent Effect is reported for this compound? O=C(c1cc(Cn2ccc3ccccc32)[nH]n1)N1CCC[C@H]1CO
36.89

Which Percent Effect is reported for this compound? CCn1nnc(NCc2ccc(-c3ccc(Br)cc3)o2)n1
69.94

Which Percent Effect is reported for this compound? Cn1ncnc1NCc1ccc(Cl)cc1
-4.993

Which Percent Effect is reported for this compound? CCN1c2ccc(-c3cncn3CC(=O)NC(C)(C)C)cc2CC1C.Cl (stereo not drawn)
-3.554

Which Percent Effect is reported for this compound? COCc1cccc(NCc2cccnc2)c1
-54.85

Which Percent Effect is reported for this compound? CCN1CCc2cc(-c3cncn3CCNC3CCS(=O)(=O)C3)ccc21.Cl (stereo not drawn)
12.29

Which Percent Effect is reported for this compound? CN(C)[C@@H]1CN(Cc2cccnc2)C[C@H]1c1cn(C)c2ccccc12.Cl
6.134

Which Percent Effect is reported for this compound? CCSc1cccc(NCc2cccnc2)c1
12.75

Which Percent Effect is reported for this compound? CN(C)[C@@H]1CN(Cc2ccc(O)cc2)C[C@H]1c1cn(C)c2ccccc12.Cl
-25.68

Which Percent Effect is reported for this compound? Cn1nnc(NCc2ccc(-c3ccc(Br)cc3)o2)n1
60.92

Which Percent Effect is reported for this compound? CCSc1cc(C(=O)NCCc2nnc(-c3ccco3)[nH]2)ccn1
-11.72

Which Percent Effect is reported for this compound? COc1cccc([C@@H]2CCN(Cc3cn(C)c4ccccc34)C[C@H]2O)c1
-6.919

Which Percent Effect is reported for this compound? CCCn1cc(NC(=O)Nc2ccc(F)c(C(=O)NC)c2)cn1
69.43

Which Percent Effect is reported for this compound? Cc1cc(C)n(C2CN(Cc3ccccn3)C2)n1
-9.481

Which Percent Effect is reported for this compound? COc1ccc(C2(NCc3c(C)nc4c(C)cccn34)CCCC2)cc1.O=C(O)CC(O)(CC(=O)O)C(=O)O
60.04

Which Percent Effect is reported for this compound? Cc1nccn1CCCn1cncc1-c1ccc2c(c1)CC(C)N2C.Cl (stereo not drawn)
20.63

----------
Would you kindly list Percent Effect for each of these molecules?
- Test system: Mycobacterium tuberculosis
- Assay notes: Cornell - Phenotypic assay to identify agents that inhibit growth of Mycobacterium tuberculosis
- Format: functional
- Parameters: scale not given: direction of the effect not stated beside the values
- Recorded conditions: 10 mM as filed; unlikely as a test dose
Out of some 53,000 compounds screened, about 900 (1.7%) showed an effect of 50% or more. The entries come from a sample that favours strong results as a whole.
Field: numeric (%). Do not append units.

Which Percent Effect is reported for this molecule? O=C1CN([C@@H]2CC[C@@H](NS(=O)(=O)c3ccccc3)[C@H]2O)CCN1
55.41

Which Percent Effect is reported for this molecule? CCn1cc(NC(=O)CN2CCC(Oc3ccc(F)cc3)CC2)c(C)n1.Cl
59.25

Which Percent Effect is reported for this molecule? Cc1cc(-c2cnc(N3CCCC3)nc2C(C)C)on1
-0.9341

Which Percent Effect is reported for this molecule? O=C1CN([C@@H]2CC[C@@H](NS(=O)(=O)c3ccc(F)cc3)[C@H]2O)CCN1
42.43

Which Percent Effect is reported for this molecule? Cc1ccccc1OC1CCN(CC(=O)Nc2c(C)nn(C)c2C)CC1
59.98

Which Percent Effect is reported for this molecule? Cc1cc(-c2cnc(NCc3ccc4c(c3)OCO4)nc2C(C)C)on1
24.22

Which Percent Effect is reported for this molecule? CCCc1ccc(CN2CCC3(CCC(=O)N(CCO)C3)CC2)o1
9.804

Which Percent Effect is reported for this molecule? CC(CCc1ccco1)NC(=O)Nc1cc(C(F)(F)F)c[nH]c1=O (configuration not stated)
102.9

Which Percent Effect is reported for this molecule? CCn1nc(C)cc1C(=O)N1C[C@@H]2C[C@@H](c3nnc(C)[nH]3)O[C@@H]2C1
-8.9

Which Percent Effect is reported for this molecule? CCn1c(C)nnc1SCCn1cc(-c2nccs2)nn1
-8.266

Which Percent Effect is reported for this molecule? COc1ccccc1CNc1ncc(-c2cc(C)no2)c(C(C)C)n1
6.538

Which Percent Effect is reported for this molecule? c1cc(-c2ccc3c(c2)C2(CC3)CCN(c3nncs3)CC2)ccn1
26.32

Which Percent Effect is reported for this molecule? Cn1ccc(NC(=O)CN2CCC(Oc3cnccn3)CC2)n1
-4.083

Which Percent Effect is reported for this molecule? COCCN1CC2(CCN(Cc3ccco3)CC2)c2ccccc21
57.89

Which Percent Effect is reported for this molecule? Br.Cc1ccccc1OC1CCN(CC(=O)Nc2ccn(C)n2)CC1
51.43

Which Percent Effect is reported for this molecule? CCOc1ccccc1CCC(=O)Nc1c(C)nn(C)c1C
-20.08

Which Percent Effect is reported for this molecule? Cc1nnc(C2CCN(C(=O)c3ccc(-n4cccc4)cc3)CC2)s1
34.12

Which Percent Effect is reported for this molecule? CC(C)COC(=O)N1CCCN(C(C)c2nc(C(C)C)no2)CC1 (configuration not stated)
10.17

Which Percent Effect is reported for this molecule? Cn1ccc(NC(=O)CN2CCN(C3CCCC3)C(=O)C2)n1
47.35

Which Percent Effect is reported for this molecule? O=C(O)C1CN(c2cccc(F)c2)CCO1 (configuration not stated)
-11.48

Which Percent Effect is reported for this molecule? CC[C@H]1N(CC2CCC2)CCC[C@]12CCC(=O)N2Cc1ccncc1.O=C(O)C(F)(F)F.O=C(O)C(F)(F)F
23.16

Which Percent Effect is reported for this molecule? O=C1CN([C@@H]2CC[C@@H](NS(=O)(=O)c3ccccc3F)[C@H]2O)CCN1
-3.18

----------
Would you kindly list Percent Effect for each of these molecules?
- System: Mycobacterium tuberculosis
- Assay notes: Cornell - Phenotypic assay to identify agents that inhibit growth of Mycobacterium tuberculosis
- Type: functional
- Parameters: scale not given: direction of the effect not stated beside the values
- Recorded conditions: 10 mM as filed; unlikely as a test dose
Hit rate of the full screen: of about 53,000 compounds, about 900 (1.7%) showed an effect of 50% or more. Only a selection was taken, and strong results are over-represented in it overall.
Field: numeric (%). Do not append units.

Which Percent Effect is reported for this molecule? COCC(=O)N1CCCCC1c1ccncn1 (stereo unspecified)
-40.59

Which Percent Effect is reported for this molecule? O=C(NC1CC1)N1C[C@H]2CN(Cc3cccc(F)c3)C(=O)[C@H]2C1
-1.024

Which Percent Effect is reported for this molecule? Cc1ccc(CN2CCc3onc(C(=O)Nc4cccnc4)c3C2)o1.O=C(O)C(F)(F)F.O=C(O)C(F)(F)F
61.31

Which Percent Effect is reported for this molecule? CO[C@@H]1CCC[C@@H](NC(=O)CCCn2cncn2)[C@H]1O
5.133

Which Percent Effect is reported for this molecule? COCCn1ccc(=O)c(OCC(=O)Nc2ccc(OC)cc2)c1C
53.75

Which Percent Effect is reported for this molecule? Cc1cc(C(=O)N2CCc3c(CN(C)C(C)C)n[nH]c3C2)[nH]n1
21.29

Which Percent Effect is reported for this molecule? CO[C@@H]1CCN(c2nnc(C)s2)C[C@@H]1Cc1cccc(C)c1.O=C(O)C(F)(F)F
41.6

Which Percent Effect is reported for this molecule? Cc1cc(NC(=O)C(C)N2CCN(c3ccccc3F)CC2)no1 (stereo unspecified)
2.813

Which Percent Effect is reported for this molecule? Cc1nc(C)n(CC2CCCCN2CC(=O)NCc2ccccn2)n1 (stereo unspecified)
18.51

Which Percent Effect is reported for this molecule? Cc1nnc(N2CC[C@H](OCC3CC3)[C@@H](Cc3ccccc3)C2)s1.O=C(O)C(F)(F)F
73.55

Which Percent Effect is reported for this molecule? CS(=O)(=O)c1ccccc1-n1cc(NC(=O)CC(F)(F)F)cn1
18.55

Which Percent Effect is reported for this molecule? COCc1cc(N2CCN(C3CCCCC3)CC2)n2nccc2n1
6.435

Which Percent Effect is reported for this molecule? Cc1ccc(CN2CCc3onc(C(=O)NC(C)C)c3C2)o1.O=C(O)C(F)(F)F
1.183

Which Percent Effect is reported for this molecule? Cc1cccc2c1CCN(c1cc(N3CCCC3CO)ncn1)C2 (stereo unspecified)
67.12

Which Percent Effect is reported for this molecule? Cc1ccc(CN2CCc3onc(C(=O)NCCN(C)C)c3C2)o1.O=C(O)C(F)(F)F.O=C(O)C(F)(F)F
6.093

Which Percent Effect is reported for this molecule? CCN(Cc1nc(C)no1)C(=O)C1CC(=O)N(Cc2ccccn2)C1 (stereo unspecified)
0.6142

Which Percent Effect is reported for this molecule? CS(=O)(=O)c1snnc1C1CCN(Cc2cccc(O)c2)CC1
-3.307

Which Percent Effect is reported for this molecule? CN1CCN(c2cc(N3CCCC3CO)ncn2)Cc2ccccc21 (stereo unspecified)
-16.34

Which Percent Effect is reported for this molecule? O=C(Nc1ccccc1)[C@H]1C[C@@H]2CN(Cc3cccnc3)C[C@H]1O2
15.91

Which Percent Effect is reported for this molecule? CO[C@H]1CCN(c2nnc(C)s2)C[C@@H]1Cc1cccc(C)c1.O=C(O)C(F)(F)F
15.98

Which Percent Effect is reported for this molecule? COCc1nc2cc(NCc3scnc3C)ccc2o1
107

Data provenance is ChEMBL document CHEMBL3988442.
